target: Recombinant Human PSMA/FOLH1 Protein (Homo sapiens (Human), UniProt Q04609); test: Inhibition assay (Amplex Red glutamic acid/glutamate oxidase, NAAG substrate); settings: Target PSMA; calculated based on Cheng-Prusoff equation; average of N replicates
Sequence (Q04609 whole entry): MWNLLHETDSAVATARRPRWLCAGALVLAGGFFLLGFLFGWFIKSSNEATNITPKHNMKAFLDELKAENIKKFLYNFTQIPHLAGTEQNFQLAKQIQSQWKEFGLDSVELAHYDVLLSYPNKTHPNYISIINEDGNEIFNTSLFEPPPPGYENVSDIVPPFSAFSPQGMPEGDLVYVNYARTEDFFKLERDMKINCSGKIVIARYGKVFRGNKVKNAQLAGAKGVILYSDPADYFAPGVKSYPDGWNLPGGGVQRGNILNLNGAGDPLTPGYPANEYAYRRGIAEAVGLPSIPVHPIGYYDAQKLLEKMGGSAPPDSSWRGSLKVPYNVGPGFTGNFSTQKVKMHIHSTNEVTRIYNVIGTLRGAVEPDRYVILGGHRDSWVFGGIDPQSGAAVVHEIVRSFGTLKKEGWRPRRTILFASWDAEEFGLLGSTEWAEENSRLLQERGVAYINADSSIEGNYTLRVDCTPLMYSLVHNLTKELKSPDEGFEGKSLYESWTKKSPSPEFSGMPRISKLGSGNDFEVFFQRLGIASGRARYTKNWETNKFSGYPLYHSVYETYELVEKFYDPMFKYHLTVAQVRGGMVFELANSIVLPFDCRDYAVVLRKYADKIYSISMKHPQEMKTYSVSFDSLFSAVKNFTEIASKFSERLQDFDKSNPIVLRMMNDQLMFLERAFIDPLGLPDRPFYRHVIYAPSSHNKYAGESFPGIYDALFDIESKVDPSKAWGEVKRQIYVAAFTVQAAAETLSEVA
Numbered stars: 1 amine (or outer) side, 2 acyl side, 3 side chain; on linkers, the order of the positions; unused ones are H or OH. Square brackets hold non-standard residues; d marks the D form. Side chains are listed from the residue outwards. Peptide text beside a SMILES is read from it. 2Nal = N[C@@H](Cc1ccc2ccccc2c1)C(=O)O; Trx = NC[C@H]1CC[C@H](C(=O)O)CC1; PEG3 = NCCOCCOCCOCCC(=O)O; Dap = NC[C@H](N)C(=O)O; CO = O=C([*:1])[*:2]
readout type: Ki

Record CC(=O)NCCOCCOCCOCCC(=O)NC[C@H]1CC[C@H](C(=O)N[C@@H](Cc2ccc3ccccc3c2)C(=O)NCCCC[C@H](NC(=O)N[C@@H](Cc2ccc(C(=O)O)cc2)C(=O)O)C(=O)O)CC1 [Compound 31] . Reported Ki: 1860 nM

More entries:
# Ki of CC(=O)NCCOCCOCCOCCC(=O)NC[C@H]1CC[C@H](C(=O)N[C@@H](Cc2ccc3ccccc3c2)C(=O)NCC(=O)N[C@@H](CNC(=O)N[C@@H](CCC(=O)O)C(=O)O)C(=O)O)CC1 [Compound 32] (Ac-[PEG3][Trx][2Nal]G[Dap]([CO-Glu])-OH) = 3100 nM

Please fill in: Ki reported for CC(=O)NCCOCCOCCOCCC(=O)NC[C@H]1CC[C@H](C(=O)N[C@@H](Cc2ccc3ccccc3c2)C(=O)NCCCC[C@H](NC(=O)N[C@@H](CCC(=O)O)C(=O)O)C(=O)O)CC1 [Compound 8] = 0.21 nM

For record CC(=O)NCCOCCOCCOCCC(=O)NC[C@H]1CC[C@H](C(=O)N[C@@H](CCCOc2cc(C#N)cc(C#N)c2)C(=O)NCCCC[C@H](NC(=O)N[C@@H](CCC(=O)O)C(=O)O)C(=O)O)CC1 [Compound 47] the listed Ki is 14.7 nM

---

molecular target: UniProtKB Q04609; assay: SPR analysis of binding kinetics to biotinylated FOLH1 (Biacore 8K); settings: ligand PSMA, association rate
Listing of entries alongside the reported Kon.

In the examples that follow, each entry is paired with its recorded Kon.
The compound `CC(=O)NCCOCCOCCOCCC(=O)NC[C@H]1CC[C@H](C(=O)N[C@H](Cc2c[nH]c3ccccc23)C(=O)NCCCC[C@H](NC(=O)N[C@@H](CCC(=O)O)C(=O)O)C(=O)O)CC1` , when measured on UniProtKB Q04609, yielded Kon of 195000 1.ms

Record `CC(=O)NCCOCCOCCOCCC(=O)NC[C@H]1CC[C@H](C(=O)N[C@@H](Cc2ccccc2)C(=O)NCCCC[C@H](NC(=O)N[C@@H](CCC(=O)O)C(=O)O)C(=O)O)CC1` / UniProtKB Q04609, Kon recorded as 125000 1.ms

Value sought: Kon, system UniProtKB Q04609, item `CC(=O)NCCOCCOCCOCCC(=O)NC[C@H]1CC[C@H](C(=O)N[C@@H](Cc2ccc(OCc3ccccc3)cc2)C(=O)NCCCC[C@H](NC(=O)N[C@@H](CCC(=O)O)C(=O)O)C(=O)O)CC1` . Result: 461000 1.ms

---
Reading of Kon for `CC(=O)NCCOCCOCCOCCC(=O)N[C@@H]1C[C@@H](C(=O)NCC(=O)N[C@@H](Cc2ccc3ccccc3c2)C(=O)NCCCC[C@H](NC(=O)N[C@@H](CCC(=O)O)C(=O)O)C(=O)O)N(C(=O)COc2cc(C#N)cc(C#N)c2)C1` with UniProtKB Q04609: 183000 1.ms

`CC(=O)NCCOCCOCCOCCC(=O)NC[C@H]1CC[C@H](C(=O)N[C@@H](Cc2ccc3ccccc3c2)C(=O)NCCCC[C@H](NC(=O)N[C@@H](CC(=O)O)C(=O)O)C(=O)O)CC1` tested on UniProtKB Q04609 gave Kon: 291000 1.ms
